Quick reference: IC50 of the listed items.
- tested-on: farnesyl protein transferase (K-ras) (Homo sapiens, UniProt P49354+P49356)
- method-summary: FPT IC50 (K-ras), in vitro enzyme assay
- Assay type: biochemical
- condition-info: Table 2
Form entry: value (nM) — number only.

compound | unit-name | IC50
N#CN1CCC(CC(=O)N2CCC(C3c4ccc(Cl)c(Br)c4CCc4cc(Br)cnc43)CC2)CC1 (centres unmarked) [Example 30] | nM | 38.7

Continue with the compound presented below.
### Prompt Fill in the blank: the reported IC50 of N=C(NCc1cccnc1)N1CCC(CC(=O)N2CCC(C3c4ccc(Cl)c(Br)c4CCc4cc(Br)cnc43)CC2)CC1 (centres unmarked) [Example 29] is ____.
### Response 782

The values you see were collected from patent US5861395A.
